B1: Transcription factor SOX-11, residues 50 to 117; numbered along this chain, P35716 (parent)
chain: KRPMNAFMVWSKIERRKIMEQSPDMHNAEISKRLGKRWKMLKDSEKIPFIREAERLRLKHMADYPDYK

# Variants of: B1
# METHOD_NOTES: abundance fitness (aPCA) (normalised: wild type 0, dead -1); higher = more abundant; growth selection in yeast, the domain comes from the species named
# RECORDED_CONDITIONS: Homo sapiens
PROPERTY_NAME: abundance fitness

// below: answered variants
>>> result("R37I")
-0.123
>>> result("N27V")
-0.178
>>> result("D24G")
-0.105
>>> result("E20W")
-0.577

Identify measured abundance fitness corresponding to `L41Y`
-0.753

Write down abundance fitness measured for item `S22R`
-0.513

Specify abundance fitness for `R37H` and stop.
-0.129

Where do these numbers come from? They come from the Human Domainome abundance scans (Beltran et al. 2025).
